Hey, just so you know, these numbers are from paper PMC7407158.

- testDetails: in vitro
- conditionContext: human
endpointName: CC50

Before answering, review these 4 worked examples.
{"smi": "NC(=O)c1ncn([C@@H]2O[C@H](CO)[C@@H](O)[C@H]2O)n1", "endpointName": "CC50", "measValue": "> 250 µM"}
{"smi": "Nc1nc(O)c2ncn(COC(CO)CO)c2n1", "endpointName": "CC50", "measValue": "> 100 µM"}
{"smi": "COc1c(C)c2c(c(O)c1C/C=C(\\C)CCC(=O)O)C(=O)OC2", "endpointName": "CC50", "measValue": "> 100 µM"}
{"smi": "Nc1ccn(C[C@@H](CO)OCP(=O)(O)O)c(=O)n1", "endpointName": "CC50", "measValue": "> 250 µM"}

Ask: // returns reported CC50 for input Nc1nc2c(ncn2COCCO)c(=O)[nH]1
Reply: > 250 µM

----------
- System: MDCK cells
- conditionContext: read-out: CC50 (50% cytotoxic concentration), mock-infected, MTS cell viability assay, three days
endpointName: CC50 (µM)
Please give a number only; it is taken to be in µM.

Before answering, review these 2 worked examples.
{"molecule": "CCCCCCCCCCOCc1cn(CCOCCOCCOCCOCc2cn(C3C(=O)NC(CC(N)=O)C(=O)NC4C(=O)NC5C(=O)NC(C(=O)NC(C(=O)O)c6cc(O)cc(O)c6-c6cc5ccc6O)C(O)c5ccc(c(Cl)c5)Oc5cc4cc(c5O)Oc4ccc(cc4Cl)C3O)nn2)nn1 (stereo not shown) [Compound 6]", "measValue": 41}
{"molecule": "CCCCSC1=C(SCCCC)C(=O)N(CCOCCOCCOCCOCc2cn(C3C(=O)NC(CC(N)=O)C(=O)NC4C(=O)NC5C(=O)NC(C(=O)NC(C(=O)O)c6cc(O)cc(O)c6-c6cc5ccc6O)C(O)c5ccc(c(Cl)c5)Oc5cc4cc(c5O)Oc4ccc(cc4Cl)C3O)nn2)C1=O (stereo not shown) [Compound 7]", "measValue": 18}

Kindly consider the entry below.
Ask: // returns reported CC50 for input CCCCSC1=C(SCCCC)C(=O)N(CCOCCOCCOCCOCc2cn(CCNC(=O)[C@H]3NC(=O)[C@H]4NC(=O)[C@H](NC(=O)[C@@H]5NC(=O)[C@H](CC(N)=O)NC(=O)[C@H](N)[C@H](O)c6ccc(c(Cl)c6)Oc6cc5cc(c6O)Oc5ccc(cc5Cl)[C@H]4O)c4ccc(O)c(c4)-c4c(O)cc(O)cc43)nn2)C1=O [Compound 12]
Reply: 100

----------
- Tested on: HEL, human embryonic lung fibroblast cells
- conditionContext: read-out: CC50 HEL; mock-infected HEL cells, MTS assay
endpointName: CC50

{"compound": "CCCCCCCCCCOCc1cn(CCOCCOCCOCCOCc2cn(C3C(=O)NC(CC(N)=O)C(=O)NC4C(=O)NC5C(=O)NC(C(=O)NC(C(=O)O)c6cc(O)cc(O)c6-c6cc5ccc6O)C(O)c5ccc(c(Cl)c5)Oc5cc4cc(c5O)Oc4ccc(cc4Cl)C3O)nn2)nn1 (centres unmarked)", "measValue": "> 100 µM"}

Ask: // returns reported CC50 for input CCCCSC1=C(SCCCC)C(=O)N(CCOCCOCCOCCOCc2cn(C3C(=O)NC(CC(N)=O)C(=O)NC4C(=O)NC5C(=O)NC(C(=O)NC(C(=O)O)c6cc(O)cc(O)c6-c6cc5ccc6O)C(O)c5ccc(c(Cl)c5)Oc5cc4cc(c5O)Oc4ccc(cc4Cl)C3O)nn2)C1=O (centres unmarked)
Reply: > 100 µM
